# Tested on: Echinochloa crus-galli (L.) Beauv.
# procedure summary: Bioassay of herbicidal activity in greenhouse (further screening)
# Type: in vivo
# experimental setup: post-emergence; dose 15 g a.i./hm^2
measured metric: Growth inhibition rate, Post-emergence treatment, Echinochloa crus-galli (L.) Beauv. (%)

compound	numeric value
CC(=O)OCC1(C)CC(c2cc(-n3c(=O)cc(C(F)(F)F)n(C)c3=O)c(F)cc2Cl)=NO1 (stereo not shown)	20
CCOC(=O)C1(C)CC(c2cc(-n3c(=O)cc(C(F)(F)F)n(C)c3=O)c(F)cc2Cl)=NO1 (stereo not shown)	98
CC(C)COC(=O)C1(C)CC(c2cc(-n3c(=O)cc(C(F)(F)F)n(C)c3=O)c(F)cc2Cl)=NO1 (stereo not shown)	65
Cn1c(C(F)(F)F)cc(=O)n(-c2cc(C3=NOC(C)(COC(=O)C4CC4)C3)c(Cl)cc2F)c1=O (stereo not shown)	15
COC(=O)C1(C)CC(c2cc(-n3c(=O)cc(C(F)(F)F)n(C)c3=O)c(F)cc2Cl)=NO1 (stereo not shown)	95
CC(C)OC(=O)C1(C)CC(c2cc(-n3c(=O)cc(C(F)(F)F)n(C)c3=O)c(F)cc2Cl)=NO1 (stereo not shown)	98
Cn1c(C(F)(F)F)cc(=O)n(-c2cc(C3=NOC(C)(COS(C)(=O)=O)C3)c(Cl)cc2F)c1=O (stereo not shown)	20

====

# Tested on: Zinnia elegans Jacq.
# procedure summary: Bioassay of herbicidal activity in greenhouse (further screening)
# Assay type: in vivo
# experimental setup: post-emergence; dose 120.0 g a.i./hm^2
# Experimental: Determination of herbicidal activity of compounds of the present invention against weeds was carried out by the following procedures: Seeds of monocotyledonous and dicotyledonous weeds were sown in nutrition soil in paper pot (7 cm diameter), covered with soil in 1 cm and grown in the greenhouse under good growth conditions (temperature, atmospheric humidity, water supply). […]
Reported values of Growth inhibition rate, Post-emergence treatment, Zinnia elegans Jacq. for individual entries
measured metric: Growth inhibition rate, Post-emergence treatment, Zinnia elegans Jacq. (%)

compound	numeric value
COC(=O)C1(C)CC(c2cc(-n3c(=O)cc(C(F)(F)F)n(C)c3=O)c(F)cc2Cl)=NO1 (centres unmarked)	100
CCOC(=O)C1(C)CC(c2cc(-n3c(=O)cc(C(F)(F)F)n(C)c3=O)c(F)cc2Cl)=NO1 (centres unmarked)	100
CC(C)COC(=O)C1(C)CC(c2cc(-n3c(=O)cc(C(F)(F)F)n(C)c3=O)c(F)cc2Cl)=NO1 (centres unmarked)	100
COCCOC(=O)C1(C)CC(c2cc(-n3c(=O)cc(C(F)(F)F)n(C)c3=O)c(F)cc2Cl)=NO1 (centres unmarked)	100
CCOCCOC(=O)C1(C)CC(c2cc(-n3c(=O)cc(C(F)(F)F)n(C)c3=O)c(F)cc2Cl)=NO1 (centres unmarked)	100
CC(C)OC(=O)C1(C)CC(c2cc(-n3c(=O)cc(C(F)(F)F)n(C)c3=O)c(F)cc2Cl)=NO1 (centres unmarked)	100
Cn1c(C(F)(F)F)cc(=O)n(-c2cc(C3=NOC(C)(C(=O)OCC(F)(F)F)C3)c(Cl)cc2F)c1=O (centres unmarked)	100
CC(=O)OCCOC(=O)C1(C)CC(c2cc(-n3c(=O)cc(C(F)(F)F)n(C)c3=O)c(F)cc2Cl)=NO1 (centres unmarked)	100
CCCCOC(=O)C1(C)CC(c2cc(-n3c(=O)cc(C(F)(F)F)n(C)c3=O)c(F)cc2Cl)=NO1 (centres unmarked)	100
CCCOC(=O)C1(C)CC(c2cc(-n3c(=O)cc(C(F)(F)F)n(C)c3=O)c(F)cc2Cl)=NO1 (centres unmarked)	100
Cn1c(C(F)(F)F)cc(=O)n(-c2cc(C3=NOC(C)(C(=O)OCC4CCCO4)C3)c(Cl)cc2F)c1=O (centres unmarked)	100
